# credit: patent US20230192700A1

Target: CDK12 (Homo sapiens, UniProt Q9NYV4)
Construct: endogenous in cells; host or cells: CAL-120 human breast cancer cells (DSMZ ACC 459)
Sequence (Q9NYV4 whole entry): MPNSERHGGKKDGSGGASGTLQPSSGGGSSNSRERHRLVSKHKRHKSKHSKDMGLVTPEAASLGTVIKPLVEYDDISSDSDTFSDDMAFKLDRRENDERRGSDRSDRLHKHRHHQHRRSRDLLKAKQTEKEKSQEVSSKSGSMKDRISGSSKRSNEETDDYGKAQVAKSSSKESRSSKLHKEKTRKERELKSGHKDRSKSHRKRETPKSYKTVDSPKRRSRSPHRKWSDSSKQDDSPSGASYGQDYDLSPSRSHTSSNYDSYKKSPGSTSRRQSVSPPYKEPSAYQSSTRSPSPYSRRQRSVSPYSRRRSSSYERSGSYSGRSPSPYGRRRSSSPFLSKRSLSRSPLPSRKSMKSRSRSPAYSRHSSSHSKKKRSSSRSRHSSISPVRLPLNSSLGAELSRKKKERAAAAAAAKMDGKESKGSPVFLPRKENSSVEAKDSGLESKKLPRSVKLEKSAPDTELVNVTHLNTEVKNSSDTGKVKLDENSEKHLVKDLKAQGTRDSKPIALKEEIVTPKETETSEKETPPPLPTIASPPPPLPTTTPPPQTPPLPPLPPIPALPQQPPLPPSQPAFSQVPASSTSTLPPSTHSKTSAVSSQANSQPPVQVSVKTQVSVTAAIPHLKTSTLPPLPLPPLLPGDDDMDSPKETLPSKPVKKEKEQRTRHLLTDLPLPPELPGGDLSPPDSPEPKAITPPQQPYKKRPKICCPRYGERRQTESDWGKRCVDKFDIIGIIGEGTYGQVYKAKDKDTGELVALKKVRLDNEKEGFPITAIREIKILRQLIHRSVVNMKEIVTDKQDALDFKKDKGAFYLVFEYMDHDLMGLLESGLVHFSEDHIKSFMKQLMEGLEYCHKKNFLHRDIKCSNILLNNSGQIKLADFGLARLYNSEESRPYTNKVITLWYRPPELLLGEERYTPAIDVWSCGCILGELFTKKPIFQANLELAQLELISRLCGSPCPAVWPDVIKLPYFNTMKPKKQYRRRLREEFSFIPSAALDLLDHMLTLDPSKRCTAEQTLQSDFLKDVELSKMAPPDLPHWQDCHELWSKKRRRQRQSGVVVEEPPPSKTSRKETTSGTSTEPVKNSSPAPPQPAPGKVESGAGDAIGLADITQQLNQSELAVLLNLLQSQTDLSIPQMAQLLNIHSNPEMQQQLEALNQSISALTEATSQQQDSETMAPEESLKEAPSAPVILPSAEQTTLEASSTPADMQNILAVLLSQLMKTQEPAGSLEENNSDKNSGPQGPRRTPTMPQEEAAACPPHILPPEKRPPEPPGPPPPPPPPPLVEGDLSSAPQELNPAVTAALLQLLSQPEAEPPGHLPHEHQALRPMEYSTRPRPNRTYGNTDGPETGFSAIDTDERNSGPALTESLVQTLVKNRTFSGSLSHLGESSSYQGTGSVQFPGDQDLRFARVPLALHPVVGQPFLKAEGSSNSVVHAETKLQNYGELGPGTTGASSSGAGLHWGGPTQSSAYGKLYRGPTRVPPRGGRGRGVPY
Sequence (O75909 whole entry partner): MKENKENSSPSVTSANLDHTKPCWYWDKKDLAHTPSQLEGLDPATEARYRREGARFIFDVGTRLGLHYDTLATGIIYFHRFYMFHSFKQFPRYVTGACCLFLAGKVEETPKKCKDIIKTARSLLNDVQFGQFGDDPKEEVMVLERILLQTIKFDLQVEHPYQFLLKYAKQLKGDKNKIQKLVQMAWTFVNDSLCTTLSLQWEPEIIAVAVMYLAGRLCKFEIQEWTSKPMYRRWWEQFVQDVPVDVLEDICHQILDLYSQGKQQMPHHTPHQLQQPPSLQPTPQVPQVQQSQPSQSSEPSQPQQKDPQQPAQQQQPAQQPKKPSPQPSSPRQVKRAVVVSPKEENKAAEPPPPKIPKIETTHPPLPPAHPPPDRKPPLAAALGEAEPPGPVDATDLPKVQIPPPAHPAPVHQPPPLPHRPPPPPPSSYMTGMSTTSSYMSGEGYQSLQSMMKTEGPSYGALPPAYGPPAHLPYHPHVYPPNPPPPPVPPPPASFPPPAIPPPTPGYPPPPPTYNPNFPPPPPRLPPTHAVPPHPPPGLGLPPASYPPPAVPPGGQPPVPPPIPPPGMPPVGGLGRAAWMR
Experiment: CDK12 nuclear protein level: immunofluorescence/high content analysis in CAL-120 cells
Assay type: cell-based
Settings: ratio of IC50 CDK12 hATP (2 mM ATP) to DC50 CDK12 (IF, CAL-120)
MEASURED PROPERTY: (IC50 CDK12 high ATP) to (Degradation DC50 CDK12) ratio

- COMPOUND: "CN1CCC(n2nc(NCc3nc4cc(Cl)ccc4[nH]3)c3ncc(C4CC4)nc32)CC1"
  REPORTED RESULT: ">1695"
- COMPOUND: "CN1CCC(n2nc(NCc3nc4cc(C(F)(F)F)ccc4[nH]3)c3ncc(C4CC4)nc32)CC1"
  REPORTED RESULT: 2193
- COMPOUND: "CC(C)n1nc(NCc2nc3ccccc3[nH]2)c2ncc(C3CC3)nc21"
  REPORTED RESULT: ">403"
- COMPOUND: "c1ccc2[nH]c(CNc3nn(C4CCOC4)c4nc(C5CC5)cnc34)nc2c1 (single isomer, unassigned) [Example 17]"
  REPORTED RESULT: ">807"
- COMPOUND: "CN1CCC(n2nc(NCc3nc4c(Cl)c(F)ccc4[nH]3)c3ncc(C4CC4)nc32)CC1"
  REPORTED RESULT: ">1388"
- COMPOUND: "c1ccc2[nH]c(CNc3nn(C4CCC4)c4nc(C5CC5)cnc34)nc2c1"
  REPORTED RESULT: ">685"
- COMPOUND: "Cc1cnc2c(NCc3nc4ccccc4[nH]3)nn(C3CCN(C)CC3)c2n1"
  REPORTED RESULT: ">133"
- COMPOUND: "OCCCn1nc(NCc2nc3ccccc3[nH]2)c2ncc(C3CC3)nc21"
  REPORTED RESULT: ">102"
- COMPOUND: "Cn1nc(NCc2nc3ccccc3[nH]2)c2ncc(C3CC3)nc21"
  REPORTED RESULT: ">129"
- COMPOUND: "c1ccc2[nH]c(CNc3nn(C4CCNCC4)c4nc(C5CC5)cnc34)nc2c1"
  REPORTED RESULT: ">2344"
